Target: HLA-A*30:01
Assay: IEDB peptide-MHC binding, purified MHC/competitive/radioactivity; filed as Kd, often an IC50 or EC50 that approximates it; bounds were set here for any values at or beyond the usual limits of such assays
Conditions: source organism: Vaccinia virus WR
log10 of Kd values for the sequences below.
Would you kindly interpret these values as log10 of Kd expressed in nM?

IN: Tell me its log10 of Kd given "KVKFYKREL" as the entry.
OUT: 1.62

IN: Tell me its log10 of Kd given "RSHIRKPPS" as the entry.
OUT: 1.91

IN: Tell me its log10 of Kd given "ATKNGNIFV" as the entry.
OUT: 0.59

IN: Tell me its log10 of Kd given "KVLDGSPIS" as the entry.
OUT: 2.63

IN: Tell me its log10 of Kd given "RYRMHPMSK" as the entry.
OUT: -1.17

IN: Tell me its log10 of Kd given "KVSSKHQLV" as the entry.
OUT: 1.15

Kindly consider the entry below.
IN: Tell me its log10 of Kd given "HVLMHSPLV" as the entry.
OUT: 1.48

====

pKd values for the sequences below.
Target: HLA-A*11:01
Assay: IEDB peptide-MHC binding, purified MHC/competitive/radioactivity; filed as Kd, often an IC50 or EC50 that approximates it; bounds were set here for any values at or beyond the usual limits of such assays
Conditions: source organism: Vaccinia virus WR
pKd is a log-scale quantity: -log10 of the concentration expressed in molar.

Observe how each entry below is paired with its result.
IN: // fetch pKd for "TFNSLNTDDY" ; system: HLA-A*11:01
OUT: 5.00

IN: // fetch pKd for "PISELSRLRY" ; system: HLA-A*11:01
OUT: 6.13

Kindly consider the entry below.
IN: // fetch pKd for "LSRLRYNLCK" ; system: HLA-A*11:01
OUT: 6.15

====

pKd values for the sequences below.
Target: HLA-B*18:01
Assay: IEDB peptide-MHC binding, purified MHC/competitive/radioactivity; filed as Kd, often an IC50 or EC50 that approximates it; bounds were set here for any values at or beyond the usual limits of such assays
Conditions: source organism: SARS coronavirus Tor2
pKd: −log10 of the molar value.

IN: Tell me its pKd given "SEETGTLIV" as the entry.
OUT: ≤ 4.30

IN: Tell me its pKd given "TEKSNVVRG" as the entry.
OUT: ≤ 4.11

IN: Tell me its pKd given "SELVIGAVII" as the entry.
OUT: ≤ 4.33

====

pKd values for the sequences below.
Biological target: HLA-A*68:01
Assay: IEDB peptide-MHC binding, purified MHC/competitive/radioactivity; filed as Kd, often an IC50 or EC50 that approximates it; bounds were set here for any values at or beyond the usual limits of such assays
Settings: source organism: Vaccinia virus WR
pKd is a log-scale quantity: -log10 of the concentration expressed in molar.

IN: Tell me its pKd given "SIHLTKTDKK" as the entry.
OUT: 5.70

IN: Tell me its pKd given "NVIEDITFLR" as the entry.
OUT: 8.80

IN: Tell me its pKd given "WFLKSGAVVK" as the entry.
OUT: 6.72

IN: Tell me its pKd given "DSIPISELSR" as the entry.
OUT: 7.91

IN: Tell me its pKd given "DLIVTFRER" as the entry.
OUT: 7.70

IN: Tell me its pKd given "STRTIILVGY" as the entry.
OUT: 7.00

Others:
IN: Tell me its pKd given "NLPYNWKNFY" as the entry.
OUT: 6.20

IN: Tell me its pKd given "ISARALKAY" as the entry.
OUT: 5.61

IN: Tell me its pKd given "NFMVSVSDFR" as the entry.
OUT: 8.18

IN: Tell me its pKd given "GLTTHCTKLR" as the entry.
OUT: 4.92

IN: Tell me its pKd given "VLDRDGNFR" as the entry.
OUT: 6.03

IN: Tell me its pKd given "DIICEDAMY" as the entry.
OUT: 5.34
